- testTarget: T1, human PAC1 receptor extracellular domain (ECD) (human, UniProt P41586 24-153)
- T1 construct: also called PAC1 receptor ECD; PAC1 ECD
- T1 sequence: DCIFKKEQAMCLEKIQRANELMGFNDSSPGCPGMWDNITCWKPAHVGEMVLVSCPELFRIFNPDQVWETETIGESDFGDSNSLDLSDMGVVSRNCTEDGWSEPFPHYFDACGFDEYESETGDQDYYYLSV
- testMethodNotes: yeast-displayed Fab, FACS, 10 nM PAC1 receptor ECD
testReadout: Mutant vs. 4E4.2 Parent B/D Ratio (fold)

binder="anti-CGRP receptor variant 13, yeast-displayed Fab (Fab, V domains shown, also called Variant Ab ID 13) VH: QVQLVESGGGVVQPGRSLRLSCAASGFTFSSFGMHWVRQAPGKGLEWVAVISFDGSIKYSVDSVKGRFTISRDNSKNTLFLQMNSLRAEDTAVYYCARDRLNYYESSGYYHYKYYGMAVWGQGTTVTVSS VL: QSVLTQPPSVSAAPGQKVTISCSGSRSNIGRRTVSWYQQLPGTAPKLLIYDNNKRPSGIPDRFSGSKSGTSATLGITGLQTGDEADYYCGTWDSRLSAVVFGGGTKLTVLG" unit=fold recordedvalue=1
binder="anti-CGRP receptor variant 08, yeast-displayed Fab (Fab, V domains shown, also called Variant Ab ID 08) VH: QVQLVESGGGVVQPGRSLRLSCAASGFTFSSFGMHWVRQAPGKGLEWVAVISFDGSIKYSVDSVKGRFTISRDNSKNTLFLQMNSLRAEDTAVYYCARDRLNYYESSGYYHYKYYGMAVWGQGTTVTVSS VL: QSVLTQPPSVSAAPGQKVTISCSGSYSNIGWWPVSWYQQLPGTAPKLLIYDNNKRPSGIPDRFSGSKSGTSATLGITGLQTGDEADYYCGTWDSRLSAVVFGGGTKLTVLG" unit=fold recordedvalue=1
